Below is a list of entries, each paired with its recorded Emax value.
# System: LPA-induced MCP-1 in NRK-49F cells
# test.protocol: LPA-induced MCP-1 AlphaLISA assay
# Format: cell-based
# condition.parameters: Rattus norvegicus, final LPA 10 μM, 7 hours, read-out: Maximum Inhibition
# Description: Two days prior to the experiment, NRK-49F cells were plated at 8,000 cells/well in 100 μL of growth medium [DMEM (Life Technologies #11995) with 5% dFBS (Life Technologies #30067-334), 100 units/mL penicillin/streptomycin (Life Technologies #15140122)] in 96-well clear flat bottom polystyrene TC-treated microplate (Corning® #3599) and incubated in humidified 10% CO2 at 37° C. […] The plate was read using the default Envision™ Alpha protocol (PerkinElmer). […]
Form entry: value (%) — number only.

1. COc1cc(C(=O)N(CCCc2ccccc2)CCSCC(=O)O)cc(OC)c1C [Example 44]; 91
2. COc1cc(C(=O)N(CCCc2ccccc2)CC(=O)NC2(C(=O)O)Cc3ccccc3C2)cc(OC)c1C [Example 1]; 66

Enquiry: Dear colleague, I am looking for the recorded Emax of the following molecule: COc1cc(OC)cc(C(=O)N(CCCCC(=O)O)CCCc2ccc(F)cc2)c1 [Example 148]
Return: 40

Enquiry: Dear colleague, I am looking for the recorded Emax of the following molecule: CCOP(=O)(O)CCCCN(CCCc1ccccc1)C(=O)c1cc(OC)cc(OC)c1 [Example 76]
Return: 36

* * *

# Test system: LPA-induced MCP-1 in NRK-49F cells
# test.protocol: LPA-induced MCP-1 AlphaLISA assay
# Type: cell-based
# condition.parameters: Rattus norvegicus, final LPA 10 μM, 7 hours, read-out: Maximum Inhibition
Is Emax at least 80%? Then true (1). If not, false (0).

1) COc1cc(C(=O)N(CCCc2ccccc2)CCSCCC(=O)O)cc(OC)c1C; true (1)
2) COc1cc(C(=O)N(CCCCC(=O)O)CCCc2ccc(C)o2)cc(OC)c1C; true (1)

Enquiry: Hi, just wondering whether `COc1cc(C(=O)N(CCCCC(=O)O)CCCc2cccc(C)c2)cc(OC)c1C` shows Emax of 80% or higher.
Return: true (1)

Enquiry: Hi, just wondering whether `COc1cc(C(=O)N(CCCc2ccccc2)CCCC(C)(C)C(=O)NS(C)(=O)=O)cc(OC)c1C` shows Emax of 80% or higher.
Return: true (1)

Enquiry: Hi, just wondering whether `COc1ccc(C(=O)N(CCCCC(=O)O)CCCc2ccccc2)cc1F` shows Emax of 80% or higher.
Return: false (0)

Enquiry: Hi, just wondering whether `COc1cc(C(=O)N(CCCCC(=O)O)CCCc2ccccc2)ccc1[N+](=O)[O-]` shows Emax of 80% or higher.
Return: false (0)

Enquiry: Hi, just wondering whether `CC(=O)Nc1cc(C(=O)N(CCCCC(=O)O)CCCc2ccccc2)ccn1` shows Emax of 80% or higher.
Return: false (0)

* * *

# Tested on: LPA-induced MCP-1 in NRK-49F cells
# test.protocol: LPA-induced MCP-1 AlphaLISA assay
# Assay type: cell-based
# condition.parameters: Rattus norvegicus, final LPA 10 μM, 7 hours, read-out: Maximum Inhibition
Below is a list of entries, each paired with its recorded Emax value.
Form entry: value (%) — number only.

Guide cases for Emax, answers given:
1) COc1cc(OC)cc(C(=O)N(CCCc2ccccc2)CCCC(C)(C)C(=O)O)c1; 83
2) COc1cc(C(=O)N(CCCc2ccccc2)CCC[C@@H](C)C(=O)O)cc(OC)c1C (single isomer, unassigned); 92
3) COc1cc(C(=O)N(CCCCC(=O)NS(=O)(=O)C(C)C)CCCc2ccccc2)cc(OC)c1C; 88
4) COc1cc(C(=O)N(CCCc2ccccc2Cl)CCSCC(=O)O)cc(OC)c1C; 78
5) COc1cc(C(=O)N(CCCc2ccccc2)CCOC(=O)NS(C)(=O)=O)cc(OC)c1C; 58

Now examine the next entry.
Enquiry: Dear colleague, I am looking for the recorded Emax of the following compound: `COc1cc(C(=O)N(CCCOC(=O)NS(=O)(=O)c2ccc(F)cc2)CCCc2ccccc2)cc(OC)c1C`
Return: 59

* * *

# assayed.system: LPAR1 (Homo sapiens, UniProt Q92633)
# Construct: host or cells: U2OS
# Sequence (Q92633 whole entry): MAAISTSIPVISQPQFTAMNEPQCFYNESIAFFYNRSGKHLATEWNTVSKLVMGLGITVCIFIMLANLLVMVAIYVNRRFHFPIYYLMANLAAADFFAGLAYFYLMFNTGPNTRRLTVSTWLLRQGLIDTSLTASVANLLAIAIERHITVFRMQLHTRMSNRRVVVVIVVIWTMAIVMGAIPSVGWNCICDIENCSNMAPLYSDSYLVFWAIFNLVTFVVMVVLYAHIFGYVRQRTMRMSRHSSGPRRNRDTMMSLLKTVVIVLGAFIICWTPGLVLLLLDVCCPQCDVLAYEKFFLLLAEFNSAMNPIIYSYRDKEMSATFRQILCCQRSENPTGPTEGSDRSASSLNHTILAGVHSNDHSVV
# test.protocol: IP-One HTRF Assay
# Type: cell-based
# condition.parameters: U2OS cells stably expressing LPAR1; LPA stimulation; IP-One Tb HTRF kit
# Method: U2OS cells stably expressing LPAR1 (Life Technologies #K1519A) were plated at 20000 cells/well in growth medium (McCoy's 5A(Life Technologies #16600-082)) with 10% dFBS (Life Technologies #26400-036), 0.1 mM non-essential amino acids, 25 mM HEPES, 1 mM sodium pyruvate, 1% penicillin/streptomycin, 50 μg/mL hygromycin, and 100 μg/mL Geneticin® in tissue culture treated 384-well white plates (Greiner #781080) in humidified 5% CO2 at 37° C. overnight. […]
reported.property: IC50 (nM)
Form entry: value (nM) — number only.

Guide cases for IC50, answers given:
1) COc1cc(C(=O)N(CCCc2ccccc2)CCOCCC(=O)O)cc(OC)c1C; 424
2) COc1cc(OC)cc(C(=O)N(CCCCC(=O)O)CCCc2cccc(Cl)c2)c1; 285
3) COc1cc(C(=O)N(CCCCC(=O)O)CCCc2ccccc2F)cc(OC)c1C; 321
4) COc1cc(C(=O)N(CCCc2ccccc2)CCCC(C)(C)C(=O)O)cc(OC)c1C; 62

Enquiry: Dear colleague, I am looking for the recorded IC50 of the following molecule: `CNS(=O)(=O)NC(=O)CCN(CCCc1ccccc1)C(=O)c1cc(OC)c(C)c(OC)c1`
Return: 13300

Enquiry: Dear colleague, I am looking for the recorded IC50 of the following molecule: `COc1cc(C(=O)N(CCCCC(=O)NS(=O)(=O)c2ccccn2)CCCc2ccccc2)cc(OC)c1C`
Return: 200

Enquiry: Dear colleague, I am looking for the recorded IC50 of the following molecule: `COc1cc(OC)cc(C(=O)N(CCCCP(=O)(O)O)CCCc2ccccc2)c1`
Return: 1070

Enquiry: Dear colleague, I am looking for the recorded IC50 of the following molecule: `COc1cc(C(=O)N(CCCc2ccccc2)CCSCC(=O)O)cc(OC)c1C`
Return: 223

Enquiry: Dear colleague, I am looking for the recorded IC50 of the following molecule: `COc1cc(C(=O)N(CCCCC(=O)O)CCCc2ccco2)cc(OC)c1C`
Return: 523

* * *

Below is a list of entries, each paired with its recorded pIC50 value.
# assayed.system: LPAR1 (Homo sapiens)
# Construct: host or cells: U2OS
# test.protocol: LPAR1 FLIPR Assay
# Type: cell-based
# condition.parameters: U2OS cells stably expressing LPAR1; LPA (EC80); Calcium 6 FLIPR dye
Recall that pIC50 is obtained by taking minus log10 of the concentration measured in molar.

Guide cases for pIC50, answers given:
1) CCOc1cc(C(=O)N(CCCCC(=O)O)CCCc2ccccc2)ccn1; 6.03
2) CC(=O)Nc1cc(C(=O)N(CCCCC(=O)O)CCCc2ccccc2)ccn1; 6.03
3) COc1ccc(C2(C(=O)N(CCCCC(=O)O)CCCc3ccccc3)CC2)cc1; 7.77
4) COc1cc(C(=O)N(CCCc2cccc(Cl)c2)CCOCC(=O)O)cc(OC)c1C; 7.82
5) COc1ccc(C2(C(=O)N(CCCCC(=O)O)CCCc3ccccc3)CC(=O)C2)cc1; 7.07
6) COc1ccc(C2(C(=O)N(CCCCC(=O)O)CCCc3ccccc3)CCC2)cc1; 7.36
7) CCC1CCC(NC(=O)CN(CCCc2ccccc2)C(=O)c2cc(OC)c(C)c(OC)c2)(C(=O)O)CC1 (centres unmarked); 7.03
8) COc1c(F)cc(C(=O)N(CCCCC(=O)O)CCCc2ccccc2)cc1F; 5.21
9) COc1cc(C(=O)N(CCCCC(=O)O)CCCCc2ccccc2)cc(OC)c1C; 4.70
10) COc1cc(C(=O)N(CCCc2ccccc2)CCC[C@@H](C)C(=O)O)cc(OC)c1C (single isomer, unassigned); 7.70

Enquiry: Dear colleague, I am looking for the recorded pIC50 of the following compound: `COc1cc(C(=O)N(CCCCC(=O)NS(=O)(=O)C(C)C)CCCc2ccccc2)cc(OC)c1C`
Return: 7.23

Enquiry: Dear colleague, I am looking for the recorded pIC50 of the following compound: `COc1cc(C(=O)N(CCCc2cccc(F)c2)CCSCC(=O)O)cc(OC)c1C`
Return: 8.00

Enquiry: Dear colleague, I am looking for the recorded pIC50 of the following compound: `COc1cc(C(=O)N(CCCCC(=O)O)CCCc2ccc(C)o2)cc(OC)c1C(F)(F)F`
Return: 6.63

Enquiry: Dear colleague, I am looking for the recorded pIC50 of the following compound: `COc1cc(C(=O)N(CCCc2ccccc2)CCSCCC(=O)O)cc(OC)c1C`
Return: 7.70

Enquiry: Dear colleague, I am looking for the recorded pIC50 of the following compound: `COc1cc(C(=O)N(CCCc2ccccc2Cl)CCSCC(=O)O)cc(OC)c1C`
Return: 6.50
